Assay: Therapeutic index, ratio of EC50 for mouse J774.A1 cells to EC50 for antileishmanial activity against Leishmania mexicana MNYC/BZ/62/M379 amastigotes expressing red-shifted firefly luciferase from integrated ribosomal (28S) RNA locus infected in mouse J774.A1 cells
Assay type: toxicity, cell-based
Conditions: read-out: TI
OBSERVED PROPERTY: selectivity ratio
Could you respond with only the numeric value?

{"COMPOUND STRING": "C[C@H]1CC[C@H](N/C=C2\\N=C(c3ccc[nH]3)C=C2Oc2ccc(Cl)cc2)CC1", "DATA VALUE": 4.4}

Turning now to a further record.
Input: Would you mind telling me what selectivity ratio value was observed for COC1=CC(c2ccc(Cc3ccc(OC)cc3)[nH]2)=N/C1=C\NC1CCCCCCC1.Cl ?
Output: 35

###

Test: Cytotoxicity against mouse J774.A1 cells assessed as reduction in cell survival measured after 96 hrs by SYBR Green II dye based analysis
Type: toxicity
Note to self: EC50 at 96 h under 900 nM means TRUE, ties and anything higher get FALSE.

The following compounds have reported results that may help.
{"COMPOUND STRING": "CCC1=C(CC)/C(=C/N[C@H]2CC[C@H](C)CC2)N=C1c1ccc[nH]1.Cl", "LABEL": "FALSE"}
{"COMPOUND STRING": "COC1=CC(c2ccc[nH]2)=N/C1=C\\N[C@H]1CC[C@H](NC(=O)OC(C)(C)C)CC1", "LABEL": "FALSE"}
{"COMPOUND STRING": "FC(F)(F)Oc1ccc(OC2=CC(c3ccc[nH]3)=N/C2=C\\NC2CCCCCCC2)cc1", "LABEL": "FALSE"}
{"COMPOUND STRING": "C[C@H]1CC[C@H](N/C=C2\\N=C(c3ccc[nH]3)C=C2Oc2ccc(Cl)cc2)CC1", "LABEL": "TRUE"}
{"COMPOUND STRING": "FC(F)(F)Oc1ccc(OC2=CC(c3ccc[nH]3)=N/C2=C\\N[C@H]2CC[C@H](C(F)(F)F)CC2)cc1", "LABEL": "TRUE"}
{"COMPOUND STRING": "COC1=CC(c2ccc[nH]2)=N/C1=C\\N[C@H]1CC[C@H](C)CC1.Cl", "LABEL": "TRUE"}
{"COMPOUND STRING": "CCCCCCCCCCCN/C=C1\\N=C(c2ccc[nH]2)C=C1OC", "LABEL": "FALSE"}
{"COMPOUND STRING": "CCCCCCN/C=C1\\N=C(c2ccc[nH]2)C=C1Oc1ccc(OC(F)(F)F)cc1", "LABEL": "FALSE"}
{"COMPOUND STRING": "COC1=CC(c2ccc[nH]2)=N/C1=C\\Nc1ccc(C)cc1.Cl", "LABEL": "TRUE"}
{"COMPOUND STRING": "C(/NC1CCCCC1)=C1/N=C(c2ccc[nH]2)C2=C1CCCC2.Cl", "LABEL": "FALSE"}

Input: I wonder whether COC1=CC(c2ccc[nH]2)=N/C1=C\Nc1ccc(OC(F)(F)F)cc1.Cl has EC50 at 96 h below 900 nM. Can you tell?
Output: FALSE

Input: A record lists COC1=CC(c2ccc[nH]2)=N/C1=C\Nc1ccc(Oc2ccc(OC)cc2)cc1 . Is its EC50 at 96 h below 900 nM?
Output: FALSE

Input: Consider the compound COC1=CC(c2ccc[nH]2)=N/C1=C\Nc1ccc(Oc2ccc(C)cc2)cc1 . Is its EC50 at 96 h strictly less than 900 nM?
Output: FALSE

Input: For this compound, is EC50 at 96 h lower than 900 nM? COC1=CC(c2ccc(Cc3ccc(OC)cc3)[nH]2)=N/C1=C\NC1CCCC1.Cl
Output: TRUE

Input: Say whether its EC50 at 96 h is strictly beneath 900 nM. Entry: CC1=C(C)/C(=C/NC23CC4CC(CC(C4)C2)C3)N=C1c1[nH]c(C)cc1C
Output: TRUE

Input: Dear colleague, could you confirm whether EC50 at 96 h of CC1=C(C)/C(=C/NC2CCCCCC2)N=C1c1ccc(CC(C)C)[nH]1.Cl falls below 900 nM? Thanks.
Output: FALSE

###

The reader will find reported viability at 96 h, 0.1 µM values listed item by item below.
Experiment: Cytotoxicity against mouse J774.A1 cells assessed as cell survival at 0.1 uM measured after 96 hrs by SYBR Green II dye based analysis relative to control
Format: toxicity
Conditions: read-out: Survival
Use % as the unit, but write only the number.

For orientation, consider the following solved cases.
{"MOLECULE": "C[C@H]1CC[C@H](N/C=C2\\N=C(c3ccc[nH]3)C=C2Oc2cc(F)cc(F)c2)CC1", "DATA VALUE": 55.3}
{"MOLECULE": "CC1=C(C)/C(=C/NC2CCCCCC2)N=C1c1ccc(CC(C)C)[nH]1.Cl", "DATA VALUE": 74.5}
{"MOLECULE": "CCc1c[nH]c(C2=N/C(=C\\NC3CCCCCC3)C(C)=C2C)c1.Cl", "DATA VALUE": 63.3}
{"MOLECULE": "FC(F)(F)Oc1ccc(OC2=CC(c3ccc[nH]3)=N/C2=C\\NC2CCCCCC2)cc1", "DATA VALUE": 82.8}

Input: Look at this molecule and give its reported viability at 96 h, 0.1 µM. CCCCCCCCCCCCCCCCOP(=O)([O-])OCC[N+](C)(C)C [MILTEFOSINE]
Output: 39.2

Input: Fill in: viability at 96 h, 0.1 µM of COC1=CC(c2ccc[nH]2)=N/C1=C\Nc1ccc(Oc2ccc(OC)cc2)cc1 is ___
Output: 50.2

Input: # query: viability at 96 h, 0.1 µM of entry CC1=C(C)/C(=C/NC2CCCCCC2)N=C1c1[nH]c(C)cc1C
Output: 56.8

###

Assay: Metabolic stability in pre-warmed pooled human liver microsomes assessed as half life at 1 uM measured upto 60 mins by LC-MS analysis
Assay type: ADME, Microsome
Some molecules, each annotated with its measured half-life at 1 µM.
Hi! Could you send only the number? It should be in min, unit omitted.

Consider the following illustrative entries.
{"COMPOUND STRING": "COC1=CC(c2ccc[nH]2)=N/C1=C\\NC1CCCCCC1.Cl", "OBSERVED PROPERTY": "half-life at 1 µM", "DATA VALUE": 52.1}
{"COMPOUND STRING": "COC1=CC(c2ccc(Cc3ccc(OC)cc3)[nH]2)=N/C1=C\\NC1CCCC1.Cl", "OBSERVED PROPERTY": "half-life at 1 µM", "DATA VALUE": 11.7}
{"COMPOUND STRING": "COC1=CC(c2ccc[nH]2)=N/C1=C\\Nc1ccc(C)cc1.Cl", "OBSERVED PROPERTY": "half-life at 1 µM", "DATA VALUE": 30}

Input: Any idea what its half-life at 1 µM is? The molecule is CCC1=C(CC)/C(=C/N[C@H]2CC[C@H](C)CC2)N=C1c1ccc[nH]1.Cl
Output: 23.3

###

Each entry below lists one item and its recorded selectivity ratio value.
Experiment: Therapeutic index, ratio of EC50 for mouse J774.A1 cells to EC50 for antileishmanial activity against Leishmania mexicana MNYC/BZ/62/M379 amastigotes expressing red-shifted firefly luciferase from integrated ribosomal (28S) RNA locus infected in mouse J774.A1 cells
Assay type: toxicity, cell-based
Settings: read-out: TI
Returns: the value as a bare number; no unit string appended.

Solved entries (count: 6):
{"COMPOUND STRING": "COC1=CC(c2ccc[nH]2)=N/C1=C\\Nc1ccc(C)cc1.Cl", "OBSERVED PROPERTY": "selectivity ratio", "DATA VALUE": 4.2}
{"COMPOUND STRING": "COC1=CC(c2ccc(-c3ccc(OC)cc3)[nH]2)=N/C1=C\\NC1CCCCCC1.Cl", "OBSERVED PROPERTY": "selectivity ratio", "DATA VALUE": 24}
{"COMPOUND STRING": "CCC1=C(CC)/C(=C/N[C@H]2CC[C@H](C)CC2)N=C1c1ccc[nH]1.Cl", "OBSERVED PROPERTY": "selectivity ratio", "DATA VALUE": 19}
{"COMPOUND STRING": "CC1=C(C)/C(=C/NC23CC4CC(CC(C4)C2)C3)N=C1c1[nH]c(C)cc1C", "OBSERVED PROPERTY": "selectivity ratio", "DATA VALUE": 14}
{"COMPOUND STRING": "Cl.FC(F)(F)Oc1ccc(C2=CC(c3ccc[nH]3)=N/C2=C\\NC23CC4CC(CC(C4)C2)C3)cc1", "OBSERVED PROPERTY": "selectivity ratio", "DATA VALUE": 10}
{"COMPOUND STRING": "CCc1ccc(C2=N/C(=C\\NC3CCCCCC3)C(OC)=C2)[nH]1.Cl", "OBSERVED PROPERTY": "selectivity ratio", "DATA VALUE": 14}

Let's switch to this compound now.
Input: Consider the compound COC1=CC(c2ccc[nH]2)=N/C1=C\Nc1ccc(Oc2ccc(C)cc2)cc1 and give its measured selectivity ratio.
Output: 29
